Reference for the values: PubChem BioAssay AID1963860

system: CN0375-F725-PDC KRAS spheroid viability; test: Anticancer human tumor CN0375-F725-PDC patient-derived colon carcinoma cell line growth inhibition [KRAS2]; details: second compound 1 µM; first compound 0.316 µM; hits give low values; spheroids with HUVEC and MSC
ASSAY ENDPOINT: viability, T/C (%)
Numbers only, in %.

Please review the following examples before continuing.
[
  {
    "COMPOUND": "COC(=O)c1ccc2c(C(=Nc3ccc(N(C)C(=O)CN4CCN(C)CC4)cc3)c3ccccc3)c(O)[nH]c2c1 + CNCc1ccccc1-c1csc(C(C)Nc2nc(C)nc3cc(OC)c(OC)cc23)c1",
    "viability, T/C, %": 77.3
  },
  {
    "COMPOUND": "CCNC(=O)CC1N=C(c2ccc(Cl)cc2)c2cc(OC)ccc2-n2c(C)nnc21 (centres undefined) + C=CC(=O)N1CCN(c2nc(OCC3CCCN3C)nc3c2CCN(c2cccc4cccc(C)c24)C3)CC1CC#N",
    "viability, T/C, %": 73.3
  },
  {
    "COMPOUND": "CCN1CCN(Cc2ccc(Nc3ncc(F)c(-c4cc(F)c5nc(C)n(C(C)C)c5c4)n3)nc2)CC1 + C=CC(=O)N1CCN(c2nc(OCC3CCCN3C)nc3c2CCN(c2cccc4cccc(C)c24)C3)CC1CC#N",
    "viability, T/C, %": 85.1
  },
  {
    "COMPOUND": "COc1cc2nccc(Oc3ccc(NC(=O)C4(C(=O)Nc5ccc(F)cc5)CC4)cc3)c2cc1OC + CC1OCC2(CCN(c3cnc(Sc4ccnc(N)c4Cl)c(N)n3)CC2)C1N",
    "viability, T/C, %": 75.5
  },
  {
    "COMPOUND": "CC(C)NCC(C(=O)N1CCN(c2ncnc3c2C(C)CC3O)CC1)c1ccc(Cl)cc1 (centres undefined) + COc1cc2nc(C)nc(NC(C)c3cc(N)cc(C(F)(F)F)c3)c2cc1OC1CCOC1",
    "viability, T/C, %": 85.2
  }
]

Each compound below has a reported value. Please supply its viability, T/C.
1. COC(=O)c1ccc2c(C(=Nc3ccc(N(C)C(=O)CN4CCN(C)CC4)cc3)c3ccccc3)c(O)[nH]c2c1 + C=CC(=O)N1CCN(c2nc(OCC3CCCN3C)nc3c2CCN(c2cccc4cccc(C)c24)C3)CC1CC#N
2. CC1COCCN1c1cc(-c2ccnn2C)c2ccnc(-c3ccn[nH]3)c2n1 (centres undefined) + CNCc1ccccc1-c1csc(C(C)Nc2nc(C)nc3cc(OC)c(OC)cc23)c1
3. COc1cc2nccc(Oc3ccc(NC(=O)C4(C(=O)Nc5ccc(F)cc5)CC4)cc3)c2cc1OC + C=CC(=O)N1CCN(c2nc(OCC3CCCN3C)nc3c2CCN(c2cccc4cccc(C)c24)C3)CC1CC#N
4. COc1cc2nccc(Oc3ccc(NC(=O)C4(C(=O)Nc5ccc(F)cc5)CC4)cc3)c2cc1OC + COc1cc2nc(C)nc(NC(C)c3cc(N)cc(C(F)(F)F)c3)c2cc1OC1CCOC1

A.
1. 85.2
2. 45.1
3. 90.7
4. 83.8

---

Kindly supply the reported viability, T/C values for the records listed here.
tested on: CN0375-F725-PDC KRAS spheroid viability; experiment: Anticancer human tumor CN0375-F725-PDC cell line growth inhibition [KRAS2]; conditions: second compound 0.316 µM; first compound 1 µM; hits give low values; spheroids with HUVEC and MSC;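 note: spheroids exposed to agents for 7 days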
Give bare numbers, in %.

[
  {
    "MOLECULE": "CCN1CCN(Cc2ccc(Nc3ncc(F)c(-c4cc(F)c5nc(C)n(C(C)C)c5c4)n3)nc2)CC1 + C=CC(=O)N1CCN(c2nc(=O)n(-c3c(C)ccnc3C(C)C)c3nc(-c4c(O)cccc4F)c(F)cc23)C(C)C1",
    "ASSAY ENDPOINT": "viability, T/C",
    "RECORDED RESULT": 98.3
  },
  {
    "MOLECULE": "CC1OCC2(CCN(c3cnc(Sc4ccnc(N)c4Cl)c(N)n3)CC2)C1N (configuration not stated) + CNCc1ccccc1-c1csc(C(C)Nc2nc(C)nc3cc(OC)c(OC)cc23)c1",
    "ASSAY ENDPOINT": "viability, T/C",
    "RECORDED RESULT": 76.2
  },
  {
    "MOLECULE": "COc1cc(Nc2ncc3c(n2)-c2ccc(Cl)cc2C(c2c(F)cccc2OC)=NC3)ccc1C(=O)O + CNCc1ccccc1-c1csc(C(C)Nc2nc(C)nc3cc(OC)c(OC)cc23)c1",
    "ASSAY ENDPOINT": "viability, T/C",
    "RECORDED RESULT": 83.8
  },
  {
    "MOLECULE": "CC(C)NCC(C(=O)N1CCN(c2ncnc3c2C(C)CC3O)CC1)c1ccc(Cl)cc1 (configuration not stated) + COc1cc2nc(C)nc(NC(C)c3cc(N)cc(C(F)(F)F)c3)c2cc1OC1CCOC1",
    "ASSAY ENDPOINT": "viability, T/C",
    "RECORDED RESULT": 85.1
  },
  {
    "MOLECULE": "O=C(c1cc(Cc2n[nH]c(=O)c3ccccc23)ccc1F)N1CCN(C(=O)C2CC2)CC1 + C=CC(=O)N1CCN(c2nc(=O)n(-c3c(C)ccnc3C(C)C)c3nc(-c4c(O)cccc4F)c(F)cc23)C(C)C1",
    "ASSAY ENDPOINT": "viability, T/C",
    "RECORDED RESULT": 103
  }
]

Each molecule below has a reported value. Please supply its viability, T/C.
1. O=C(c1cc(Cc2n[nH]c(=O)c3ccccc23)ccc1F)N1CCN(C(=O)C2CC2)CC1 + CNCc1ccccc1-c1csc(C(C)Nc2nc(C)nc3cc(OC)c(OC)cc23)c1
2. CC(=O)OC12COC1CC(O)C1(C)C(=O)C(O)C3=C(C)C(OC(=O)C(O)C(NC(=O)OC(C)(C)C)c4ccccc4)CC(O)(C(OC(=O)c4ccccc4)C21)C3(C)C (configuration not stated) + CC1OCC2(CCN(c3cnc(Sc4ccnc(N)c4Cl)c(N)n3)CC2)C1N
3. CC(=O)OC12COC1CC(O)C1(C)C(=O)C(O)C3=C(C)C(OC(=O)C(O)C(NC(=O)OC(C)(C)C)c4ccccc4)CC(O)(C(OC(=O)c4ccccc4)C21)C3(C)C (configuration not stated) + C=CC(=O)N1CCN(c2nc(OCC3CCCN3C)nc3c2CCN(c2cccc4cccc(C)c24)C3)CC1CC#N
4. COc1cc2nccc(Oc3ccc(NC(=O)C4(C(=O)Nc5ccc(F)cc5)CC4)cc3)c2cc1OC + COc1cc2nc(C)nc(NC(C)c3cc(N)cc(C(F)(F)F)c3)c2cc1OC1CCOC1
5. CC1COCCN1c1cc(-c2ccnn2C)c2ccnc(-c3ccn[nH]3)c2n1 (configuration not stated) + C=CC(=O)N1CCN(c2nc(=O)n(-c3c(C)ccnc3C(C)C)c3nc(-c4c(O)cccc4F)c(F)cc23)C(C)C1
6. CC1COCCN1c1cc(-c2ccnn2C)c2ccnc(-c3ccn[nH]3)c2n1 (configuration not stated) + CNCc1ccccc1-c1csc(C(C)Nc2nc(C)nc3cc(OC)c(OC)cc23)c1
7. COC(=O)c1ccc2c(C(=Nc3ccc(N(C)C(=O)CN4CCN(C)CC4)cc3)c3ccccc3)c(O)[nH]c2c1 + C=CC(=O)N1CCN(c2nc(OCC3CCCN3C)nc3c2CCN(c2cccc4cccc(C)c24)C3)CC1CC#N

A.
92.3
71.8
79.3
74.8
65.5
59.4
90.8

Each molecule below has a reported value. Please supply its viability, T/C.
1. CCNC(=O)CC1N=C(c2ccc(Cl)cc2)c2cc(OC)ccc2-n2c(C)nnc21 (configuration not stated) + C=CC(=O)N1CCN(c2nc(OCC3CCCN3C)nc3c2CCN(c2cccc4cccc(C)c24)C3)CC1CC#N
2. CCNC(=O)CC1N=C(c2ccc(Cl)cc2)c2cc(OC)ccc2-n2c(C)nnc21 (configuration not stated) + COc1cc2nc(C)nc(NC(C)c3cc(N)cc(C(F)(F)F)c3)c2cc1OC1CCOC1
3. CC1COCCN1c1cc(-c2ccnn2C)c2ccnc(-c3ccn[nH]3)c2n1 (configuration not stated) + C=CC(=O)N1CCN(c2nc(OCC3CCCN3C)nc3c2CCN(c2cccc4cccc(C)c24)C3)CC1CC#N
4. COC(=O)c1ccc2c(C(=Nc3ccc(N(C)C(=O)CN4CCN(C)CC4)cc3)c3ccccc3)c(O)[nH]c2c1 + COc1cc2nc(C)nc(NC(C)c3cc(N)cc(C(F)(F)F)c3)c2cc1OC1CCOC1
5. Cn1nccc1Nc1nccc(-c2cc3c(s2)C(C)(C)N(CCN2CCOCC2)C3=O)n1 + CC1OCC2(CCN(c3cnc(Sc4ccnc(N)c4Cl)c(N)n3)CC2)C1N

A.
[75.1, 71.7, 65.2, 85.3, 51.8]
